# Read-out: growth arrest and DNA damage 45 (GADD45B), GADD45B (gene 4616)
# TEST: LTEA_HepaRG_GADD45B: Life Technologies and Expression Analysis (LTEA) Assay for growth arrest and DNA damage 45 (GADD45B) using HepaRG (AID 2283461)
# CONDITION_INFO: mRNA level, 48 h; actives raise or lower the signal
The source made the active and inactive calls. Rule for the calls: active = hit-call score of the fitted dose curve at least 0.9, where 1 is the maximum; inactive = score below 0.9.
Respond only with the outcome that fits, drawn from true (1) (active), false (0) (inactive)

# count of solved cases: 4
[
  {
    "COMPOUND": "CC(Cc1ccc(OCC(=O)O)cc1)NCC(O)c1csc(C(F)(F)F)n1 (stereo not drawn)",
    "QUALITATIVE_LABEL": "false (0)"
  },
  {
    "COMPOUND": "ClC(Cl)c1ccccc1",
    "QUALITATIVE_LABEL": "false (0)"
  },
  {
    "COMPOUND": "Cc1cccc(N)c1",
    "QUALITATIVE_LABEL": "false (0)"
  },
  {
    "COMPOUND": "CC(Cl)(Cl)C(=O)O",
    "QUALITATIVE_LABEL": "false (0)"
  }
]

stdin: Would you mind telling me which call this test gave `CC(C)(C)OOC(C)(C)C` ?
stdout: false (0)

stdin: Which result was noted for this compound in the test: `Cc1ccc(N)cc1N`
stdout: false (0)

stdin: Outcome? OCC1CO1 (stereo not drawn)
stdout: false (0)

stdin: Each compound tested received a call. Report the one for CCC1(c2ccccc2)C(=O)N=C(O)NC1=O (stereo not drawn) .
stdout: false (0)

stdin: What is the recorded call for this compound in the test? O=P1(N(CCCl)CCCl)NCCCO1 (stereo not drawn)
stdout: false (0)

stdin: Lab log entry: `COCCOCCO` — outcome as called in the assay?
stdout: false (0)

stdin: What did this assay record as the result for `CCCCN(CCCC)SN(C)C(=O)Oc1cccc2c1OC(C)(C)C2` ?
stdout: false (0)

stdin: Can you look up the reported call for `c1nc[nH]n1` for me?
stdout: false (0)

stdin: Assay result, entry `CCOC(=O)c1ccccc1C(=O)OCC` — outcome?
stdout: false (0)

stdin: Recorded test call requested for `CCN(CC)c1ccccc1`
stdout: false (0)

stdin: Record request — test call for `CCOP(=S)(OCC)SCSCC`
stdout: false (0)

stdin: Identify the outcome logged in this assay for the compound shown: `Cc1ccc(O)cc1C`
stdout: false (0)

stdin: Answer briefly: the call reported for `CCCCc1ccccc1` in this assay.
stdout: false (0)

stdin: Lab log entry: `CCOS(=O)(=O)OCC` — outcome as called in the assay?
stdout: false (0)

stdin: Which outcome did this test record for the compound `Nc1ccc(Cl)cc1` ?
stdout: false (0)
